I'd be grateful if you could share measured Displacement for these entries.
target under test: Type-1 angiotensin II receptor B (Rattus norvegicus)
Sequence (whole entry): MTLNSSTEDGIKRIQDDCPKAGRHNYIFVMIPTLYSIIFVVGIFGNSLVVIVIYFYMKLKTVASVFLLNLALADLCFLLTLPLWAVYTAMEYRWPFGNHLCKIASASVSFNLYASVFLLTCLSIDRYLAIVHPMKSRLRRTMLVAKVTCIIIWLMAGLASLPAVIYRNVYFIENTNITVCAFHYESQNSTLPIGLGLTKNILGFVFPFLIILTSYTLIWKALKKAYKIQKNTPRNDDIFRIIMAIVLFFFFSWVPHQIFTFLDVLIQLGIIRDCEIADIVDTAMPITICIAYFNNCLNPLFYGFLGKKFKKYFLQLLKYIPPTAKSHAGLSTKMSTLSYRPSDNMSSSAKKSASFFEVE
measurement notes: Percent displacement of [125I]Sar, Ile-Angiotensin II (A II) binding to rat Angiotensin II receptor, type 1
Set-up: concentration or dose not given beside the values

Q: Bench note: what Displacement did O=C(O)c1cccc(-c2ccc(CN3C(=O)C(=O)c4c(Cl)ccc(Cl)c43)cc2)c1 show?
Result: 31%

Q: Same lookup for CN(C)c1cnnc2ncn(Cc3cccc(-c4ccccc4C(=O)O)c3)c12 , please.
Result: 47%

Q: Same lookup for CCOC(=O)c1cc2ccccc2n1Cc1cccc(-c2ccccc2CC(=O)O)c1 , please.
Result: 30%

Q: Same lookup for c1ccc(-c2ccc(Cn3c(-c4cscn4)nc4ccccc43)cc2)c(Cc2nnn[nH]2)c1 , please.
Result: 35%

Q: Same lookup for CCCc1nccn1Cc1ccc(-c2ccccc2C(=O)O)cc1 , please.
Result: 37%
